// data source = paper PMC9907012

Form field: SI for 3D7 (one value per entry).
System: P. falciparum 3D7 (chloroquine-sensitive strain)
method: In vitro anti-plasmodial image-based assay, P. falciparum 3D7
Assay type: cell-based, Plasmodium falciparum
testContext: SI = HEK293 IC50/parasite IC50

# compound, endpoint, resultValue
measured = [
    ("N#Cc1ccc(-c2nnc3cncc(OCCc4ccccc4)n23)cc1 [Compound 6]", "SI for 3D7", ">70"),
    ("N#Cc1ccc(-c2nnc3c(C(F)(F)F)ncc(OCCc4ccccc4)n23)cc1 [Compound 16]", "SI for 3D7", ">4"),
    ("FC(F)Oc1ccc(-c2nnc3cncc(Cl)n23)cc1 [Compound 1]", "SI for 3D7", ">2"),
    ("Clc1ccc(-c2nnc3cncc(OCCc4ccccc4)n23)cc1 [Compound 5]", "SI for 3D7", ">396"),
    ("N#Cc1ccc(-c2nnc3cncc(Cl)n23)cc1 [Compound 3]", "SI for 3D7", ">2"),
    ("COc1ccc(C[C@H](N)C(=O)N[C@H]2[C@@H](O)[C@H](n3cnc4c(N(C)C)ncnc43)O[C@@H]2CO)cc1 [Puromycin, reference compound]", "SI for 3D7", 127),
    ("CCOc1cncc2nnc(-c3ccc(Cl)cc3)n12 [Compound 8]", "SI for 3D7", ">29"),
    ("FC(F)Oc1ccc(-c2nnc3c(C(F)F)ncc(OCCc4ccccc4)n23)cc1 [Compound 12]", "SI for 3D7", ">5"),
    ("FC(F)c1ncc(OCCc2ccccc2)n2c(-c3ccc(Cl)cc3)nnc12 [Compound 15]", "SI for 3D7", ">4"),
    ("FC(F)Oc1ccc(-c2nnc3cncc(OCCc4ccccc4)n23)cc1 [Compound 4]", "SI for 3D7", ">329"),
]

Tell me its SI for 3D7 given FC(F)(F)c1ncc(OCCc2ccccc2)n2c(-c3ccc(Cl)cc3)nnc12 [Compound 13] as the entry.
>9

Tell me its SI for 3D7 given FC(F)Oc1ccc(-c2nnc3c(C(F)(F)F)ncc(OCCc4ccccc4)n23)cc1 [Compound 10] as the entry.
>7

Tell me its SI for 3D7 given CCc1nc(N)nc(N)c1-c1ccc(Cl)cc1 [Pyrimethamine, reference compound] as the entry.
>657

Tell me its SI for 3D7 given Clc1ccc(-c2nnc3cncc(Cl)n23)cc1 [Compound 2] as the entry.
>4

Tell me its SI for 3D7 given N#Cc1ccc(-c2nnc3c(C(F)F)ncc(OCCc4ccccc4)n23)cc1 [Compound 18] as the entry.
>3
